Cited source for all entries: BindingDB's records for patent WO2022076495

target_of_assay: Diacylglycerol O-acyltransferase 2 (Homo sapiens, UniProt Q96PD7)
Sequence (Q96PD7 whole entry): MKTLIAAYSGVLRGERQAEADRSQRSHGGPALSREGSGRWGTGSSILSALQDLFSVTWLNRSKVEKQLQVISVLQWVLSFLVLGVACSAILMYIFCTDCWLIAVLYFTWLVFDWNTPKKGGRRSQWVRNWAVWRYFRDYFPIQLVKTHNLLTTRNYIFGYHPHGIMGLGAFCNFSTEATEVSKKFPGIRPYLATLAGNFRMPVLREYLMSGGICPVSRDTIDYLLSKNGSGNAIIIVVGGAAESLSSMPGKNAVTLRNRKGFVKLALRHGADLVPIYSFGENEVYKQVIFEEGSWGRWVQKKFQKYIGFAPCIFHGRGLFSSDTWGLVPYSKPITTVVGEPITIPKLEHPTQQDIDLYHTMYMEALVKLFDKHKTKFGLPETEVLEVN
property: IC50 (nM)
API: value field is a number in nM; no unit string.

## Input Fill in the blank: the reported IC50 of C[C@@H](n1c(=O)n(-c2cc(OCC(F)F)ncc2F)c2cc(F)c(C(=O)NC3(C)CCS(=O)(=O)CC3)cc21)C(C)(C)O [WO2022076495, EXAMPLE 74b] is ____.
## Output 6.5

## Input Please do the same for CC(C)n1c(=O)n(-c2cccc(OC(F)F)c2)c2cc(F)c(C(=O)N[C@H]3CCCC[C@@H]3O)cc21 as well.
## Output 71

## Input Please do the same for CC(C)n1c(=O)n(-c2cccc(OC(F)F)c2)c2cc(F)c(C(=O)N[C@@H]3CCCC[C@H]3O)cc21 as well.
## Output 106

## Input Please do the same for CCOc1cc(-n2c(=O)n([C@H](C)C(C)(C)O)c3cc(C(=O)NC4(C)CCS(=O)(=O)CC4)ccc32)c(F)cn1 [WO2022076495, EXAMPLE 69b] as well.
## Output 3.9

## Input Please do the same for CC1(NC(=O)c2cc3c(cc2F)n(-c2cccc(OC(F)F)c2)c(=O)n3C2CCOCC2)CS(=O)(=O)C1 as well.
## Output 19

## Input Please do the same for C[C@H](n1c(=O)n(-c2cc(OCC(F)F)ccc2F)c2cc(F)c(C(=O)NC3(C)CCS(=O)(=O)CC3)cc21)C(C)(C)O [WO2022076495, EXAMPLE 75a] as well.
## Output 1.5

## Input Please do the same for C[C@H](n1c(=O)n(-c2cccc(OCC(F)F)c2)c2ccc(C(=O)NC3(C)CCS(=O)(=O)CC3)cc21)C(C)(C)O [WO2022076495, EXAMPLE 68a] as well.
## Output 4.1

## Input Please do the same for C[C@H](n1c(=O)n(-c2cc(OC(F)F)ccc2F)c2ccc(C(=O)NC3(C)CCS(=O)(=O)CC3)cc21)C(C)(C)O [WO2022076495, EXAMPLE 66a] as well.
## Output 1.1

## Input Please do the same for CC[C@@H](C)n1c(=O)n(-c2cccc(OC(F)F)c2)c2ccc(C(=O)NC3(C)CS(=O)(=O)C3)cc21 [WO2022076495, EXAMPLE 46a] as well.
## Output 81

* * *

Let's go through some recorded pIC50 values for UniProt:Q96PD7 together.
The read-out pIC50 is expressed as -log10 of concentration in moles per litre.

## Input Fill in the blank: the reported pIC50 of CC(C)n1c(=O)n(-c2cc(OCC(F)F)ncc2F)c2ccc(C(=O)NC3(C)CCS(=O)(=O)CC3)cc21 is ____.
## Output 8.17

## Input Please do the same for C[C@H](n1c(=O)n(-c2cccc(OC(F)F)c2)c2ccc(C(=O)NC3(C)CCS(=O)(=O)CC3)cc21)C(C)(C)O [WO2022076495, EXAMPLE 67a] as well.
## Output 8.80

## Input Please do the same for C[C@H](n1c(=O)n(-c2cc(OCC(F)F)ncc2F)c2ccc(C(=O)NC3(C)CCS(=O)(=O)CC3)cc21)C(C)(C)O [WO2022076495, EXAMPLE 72a] as well.
## Output 8.19

* * *

Let's go through some recorded pIC50 values for Diacylglycerol O-acyltransferase 2 (Homo sapiens, UniProt Q96PD7) together.
The read-out pIC50 is expressed as -log10 of concentration in moles per litre.

## Input Fill in the blank: the reported pIC50 of C[C@@H](n1c(=O)n(-c2cccc(OC(F)(F)C(F)F)c2)c2cc(F)c(C(=O)NC3(C)CCS(=O)(=O)CC3)cc21)C(C)(C)O [WO2022076495, EXAMPLE 77b] is ____.
## Output 8.01

## Input Please do the same for C[C@@H](n1c(=O)n(-c2cc(OC(F)F)ccc2F)c2ccc(C(=O)NC3(C)CCS(=O)(=O)CC3)cc21)C(C)(C)O [WO2022076495, EXAMPLE 66b] as well.
## Output 7.77

## Input Please do the same for C[C@H](n1c(=O)n(-c2cc(OC(F)(F)F)ccc2F)c2cc(F)c(C(=O)NC3(C)CCS(=O)(=O)CC3)cc21)C(C)(C)O [WO2022076495, EXAMPLE 70a] as well.
## Output 9.00

## Input Please do the same for C[C@H](n1c(=O)n(-c2cc(OC(F)(F)F)ccc2F)c2ccc(C(=O)NC3(C)CCS(=O)(=O)CC3)cc21)C(C)(C)O [WO2022076495, EXAMPLE 71a] as well.
## Output 7.15

## Input Please do the same for CC[C@H](C)n1c(=O)n(-c2cccc(OC(F)F)c2)c2ccc(C(=O)NC3(C)CS(=O)(=O)C3)cc21 [WO2022076495, EXAMPLE 46b] as well.
## Output 7.04

* * *

target_of_assay: Diacylglycerol O-acyltransferase 2 (Homo sapiens, UniProt Q96PD7)
Sequence (Q96PD7 whole entry): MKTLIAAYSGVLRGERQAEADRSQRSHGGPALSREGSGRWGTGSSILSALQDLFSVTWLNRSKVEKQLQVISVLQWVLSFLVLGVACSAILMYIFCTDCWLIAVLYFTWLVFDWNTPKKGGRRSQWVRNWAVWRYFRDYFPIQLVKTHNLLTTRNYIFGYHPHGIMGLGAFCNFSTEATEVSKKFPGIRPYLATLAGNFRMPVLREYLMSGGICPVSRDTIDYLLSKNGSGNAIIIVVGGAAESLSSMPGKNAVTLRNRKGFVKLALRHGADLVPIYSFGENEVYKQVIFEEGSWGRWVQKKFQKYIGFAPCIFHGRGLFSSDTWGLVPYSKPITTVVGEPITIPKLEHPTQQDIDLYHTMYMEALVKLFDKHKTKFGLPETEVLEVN
test_details: DGAT2 enzymatic activity assay
Sorting guide: entries reporting IC50 beneath 30 nM go in the true (1) pile, the rest go in the false (0) pile.

## Input Lab note: confirm whether the reported IC50 for this compound is below 30 nM, equality not counting. compound: CC(C)(O)Cn1c(=O)n(-c2cccc(OC(F)F)c2)c2ccc(C(=O)NC3(C)CS(=O)(=O)C3)cc21
## Output false (0)

## Input Please do the same for CC(C)n1c(=O)n(-c2cc(OC(F)(F)C(F)F)ncc2F)c2cc(F)c(C(=O)NC3(C)CCS(=O)(=O)CC3)cc21 as well.
## Output true (1)

## Input Please do the same for CC1(NC(=O)c2cc3c(cc2F)n(-c2cccc(OC(F)F)c2)c(=O)n3CC(F)(F)F)CS(=O)(=O)C1 as well.
## Output false (0)

## Input Please do the same for C[C@@H](n1c(=O)n(-c2cccc(OC(F)(F)C(F)F)c2)c2ccc(C(=O)NC3(C)CS(=O)(=O)C3)cc21)C(C)(C)O [WO2022076495, EXAMPLE 76a] as well.
## Output false (0)

## Input Please do the same for C[C@H](n1c(=O)n(-c2cc(OCC(F)F)ccc2F)c2ccc(C(=O)NC3(C)CCS(=O)(=O)CC3)cc21)C(C)(C)O [WO2022076495, EXAMPLE 73a] as well.
## Output true (1)

## Input Please do the same for C[C@@H](C(F)F)n1c(=O)n(-c2cccc(OC(F)F)c2)c2ccc(C(=O)NC3(C)CCS(=O)(=O)CC3)cc21 [WO2022076495, EXAMPLE 45b] as well.
## Output false (0)

## Input Please do the same for CC(C)n1c(=O)n(-c2cccc(OC(F)(F)C(F)(F)F)c2)c2ccc(C(=O)NC3(C)CS(=O)(=O)C3)cc21 as well.
## Output true (1)

## Input Please do the same for CCOc1cc(-n2c(=O)n(C(C)C)c3cc(C(=O)NC4(C)CS(=O)(=O)C4)ccc32)c(F)cn1 as well.
## Output false (0)

## Input Please do the same for C[C@H](n1c(=O)n(-c2cc(OCC(F)F)ncc2F)c2cc(F)c(C(=O)NC3(C)CCS(=O)(=O)CC3)cc21)C(C)(C)O [WO2022076495, EXAMPLE 74a] as well.
## Output true (1)

## Input Please do the same for C[C@@H](n1c(=O)n(-c2cc(OCC(F)F)ccc2F)c2cc(F)c(C(=O)NC3(C)CCS(=O)(=O)CC3)cc21)C(C)(C)O [WO2022076495, EXAMPLE 75b] as well.
## Output true (1)

## Input Please do the same for C[C@@H](n1c(=O)n(-c2cc(OCC(F)F)ncc2F)c2ccc(C(=O)NC3(C)CCS(=O)(=O)CC3)cc21)C(C)(C)O [WO2022076495, EXAMPLE 72b] as well.
## Output true (1)

## Input Please do the same for C[C@@H](n1c(=O)n(-c2cccc(OCC(F)F)c2)c2ccc(C(=O)NC3(C)CCS(=O)(=O)CC3)cc21)C(C)(C)O [WO2022076495, EXAMPLE 68b] as well.
## Output true (1)

## Input Please do the same for CCOc1cc(-n2c(=O)n([C@@H](C)C(C)(C)O)c3cc(C(=O)NC4(C)CCS(=O)(=O)CC4)ccc32)c(F)cn1 [WO2022076495, EXAMPLE 69a] as well.
## Output true (1)

## Input Please do the same for CCOc1cc(-n2c(=O)n([C@@H](C)C(C)(C)O)c3cc(C(=O)NC4(C)CS(=O)(=O)C4)ccc32)c(F)cn1 [WO2022076495, EXAMPLE 78b] as well.
## Output true (1)

## Input Please do the same for C[C@@H](n1c(=O)n(-c2cc(OCC(F)F)ccc2F)c2ccc(C(=O)NC3(C)CCS(=O)(=O)CC3)cc21)C(C)(C)O [WO2022076495, EXAMPLE 73b] as well.
## Output true (1)

## Input Please do the same for C[C@@H](n1c(=O)n(-c2cc(OC(F)(F)F)ccc2F)c2ccc(C(=O)NC3(C)CCS(=O)(=O)CC3)cc21)C(C)(C)O [WO2022076495, EXAMPLE 71b] as well.
## Output true (1)

## Input Please do the same for C[C@H](n1c(=O)n(-c2cccc(OC(F)(F)C(F)F)c2)c2cc(F)c(C(=O)NC3(C)CCS(=O)(=O)CC3)cc21)C(C)(C)O [WO2022076495, EXAMPLE 77a] as well.
## Output true (1)

## Input Please do the same for C[C@H](n1c(=O)n(-c2cccc(OC(F)(F)C(F)F)c2)c2ccc(C(=O)NC3(C)CS(=O)(=O)C3)cc21)C(C)(C)O [WO2022076495, EXAMPLE 76b] as well.
## Output true (1)

## Input Please do the same for CCOc1cc(-n2c(=O)n([C@H](C)C(C)(C)O)c3cc(C(=O)NC4(C)CS(=O)(=O)C4)ccc32)c(F)cn1 [WO2022076495, EXAMPLE 78a] as well.
## Output false (0)

## Input Please do the same for CC(C)n1c(=O)n(-c2cccc(OC(F)F)c2)c2ncc(C(=O)NC3(C)CCS(=O)(=O)CC3)cc21 as well.
## Output false (0)

## Input Please do the same for C[C@H](C(F)F)n1c(=O)n(-c2cccc(OC(F)F)c2)c2ccc(C(=O)NC3(C)CCS(=O)(=O)CC3)cc21 [WO2022076495, EXAMPLE 45a] as well.
## Output true (1)

## Input Please do the same for C[C@@H](n1c(=O)n(-c2cccc(OC(F)F)c2)c2ccc(C(=O)NC3(C)CCS(=O)(=O)CC3)cc21)C(C)(C)O [WO2022076495, EXAMPLE 67b] as well.
## Output false (0)
